- TGT: ZNF721 full-length (Homo sapiens, UniProt Q8TF20-2 1-923)
- Sequence (Q8TF20 other isoform, or with tags, fused parts or gaps): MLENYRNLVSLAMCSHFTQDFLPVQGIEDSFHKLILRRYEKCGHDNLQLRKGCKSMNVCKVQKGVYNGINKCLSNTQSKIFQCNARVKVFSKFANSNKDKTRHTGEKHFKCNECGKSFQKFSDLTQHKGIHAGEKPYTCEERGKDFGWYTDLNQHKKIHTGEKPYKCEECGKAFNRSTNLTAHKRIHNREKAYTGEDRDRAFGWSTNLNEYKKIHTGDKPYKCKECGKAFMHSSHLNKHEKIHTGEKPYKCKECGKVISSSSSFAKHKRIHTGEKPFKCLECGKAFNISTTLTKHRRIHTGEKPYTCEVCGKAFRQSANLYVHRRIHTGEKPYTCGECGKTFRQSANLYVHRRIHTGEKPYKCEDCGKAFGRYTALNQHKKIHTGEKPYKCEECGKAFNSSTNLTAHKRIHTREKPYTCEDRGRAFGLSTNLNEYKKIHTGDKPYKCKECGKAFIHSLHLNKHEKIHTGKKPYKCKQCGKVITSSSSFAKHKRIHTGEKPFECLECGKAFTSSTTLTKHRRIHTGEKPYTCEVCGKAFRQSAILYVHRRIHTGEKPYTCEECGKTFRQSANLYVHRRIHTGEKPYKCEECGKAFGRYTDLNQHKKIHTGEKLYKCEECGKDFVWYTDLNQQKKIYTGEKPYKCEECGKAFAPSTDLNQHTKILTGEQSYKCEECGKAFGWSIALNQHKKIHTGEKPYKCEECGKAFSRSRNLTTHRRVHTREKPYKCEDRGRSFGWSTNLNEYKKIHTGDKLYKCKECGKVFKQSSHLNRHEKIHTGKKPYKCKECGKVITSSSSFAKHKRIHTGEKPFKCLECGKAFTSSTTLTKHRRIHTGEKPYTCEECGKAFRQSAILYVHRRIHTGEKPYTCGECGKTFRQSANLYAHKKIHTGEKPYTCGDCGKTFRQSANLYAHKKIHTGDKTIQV
- METHOD: HT-SELEX; 20 mM HEPES pH 7, 140 mM KCl, 5 mM NaCl, 1 mM K2HPO4, 2 mM MgSO4, 100 uM EGTA, ZnSO4, 0.1% Tween20; room temperature, 1 h; high values mean tight binding
- CONDITION_DESCRIPTION: protein: ivt; tags: eGFP (N-terminal); dsDNA, one strand shown
I'd appreciate it if you could supply binding signal values for the items below.
Answers are plain numbers, in relative 10-mer count.

CONSTRUCT_SEQUENCE: AACAGCGTAT
binding signal / relative 10-mer count: 0.225

CONSTRUCT_SEQUENCE: CGCCACCACC
binding signal / relative 10-mer count: 0.108

For each of the items listed, what is its binding signal?
1. CCCTCCCCCC
2. CCTCCACCCC
3. CCCCACGCCC
4. AGGATACACT
5. CCCACCCCGC
6. CCGCCCCCCA
7. CCCAACCACC

Result:
1. 0.342
2. 0.263
3. 0.235
4. 0.17
5. 0.212
6. 0.141
7. 0.17

----------
I'd appreciate it if you could supply binding signal values for the items below.
- TGT: ZNF721 full-length (Homo sapiens, UniProt Q8TF20-2 1-923)
- METHOD: HT-SELEX; 20 mM HEPES pH 7, 140 mM KCl, 5 mM NaCl, 1 mM K2HPO4, 2 mM MgSO4, 100 uM EGTA, ZnSO4, 0.1% Tween20; room temperature, 1 h; high values mean tight binding
- CONDITION_DESCRIPTION: protein: ivt; tags: eGFP (N-terminal); dsDNA, one strand shown
One number for each entry, in relative 10-mer count.

Consider the worked cases shown below.
CONSTRUCT_SEQUENCE: AGGGGAGGGG
VALUE: 0.13
//
CONSTRUCT_SEQUENCE: ACCCCCCCGC
VALUE: 0.112
//
CONSTRUCT_SEQUENCE: CCTCCCACCC
VALUE: 0.255

Task: Record ACCCCCCCCC : what is its binding signal with ZNF721 full-length (Homo sapiens, UniProt Q8TF20-2 1-923)?
Result: 0.143

----------
- TGT: ZNF721 DBD1 (Homo sapiens, UniProt Q8TF20-2 29-461)
- Sequence (Q8TF20 17-449): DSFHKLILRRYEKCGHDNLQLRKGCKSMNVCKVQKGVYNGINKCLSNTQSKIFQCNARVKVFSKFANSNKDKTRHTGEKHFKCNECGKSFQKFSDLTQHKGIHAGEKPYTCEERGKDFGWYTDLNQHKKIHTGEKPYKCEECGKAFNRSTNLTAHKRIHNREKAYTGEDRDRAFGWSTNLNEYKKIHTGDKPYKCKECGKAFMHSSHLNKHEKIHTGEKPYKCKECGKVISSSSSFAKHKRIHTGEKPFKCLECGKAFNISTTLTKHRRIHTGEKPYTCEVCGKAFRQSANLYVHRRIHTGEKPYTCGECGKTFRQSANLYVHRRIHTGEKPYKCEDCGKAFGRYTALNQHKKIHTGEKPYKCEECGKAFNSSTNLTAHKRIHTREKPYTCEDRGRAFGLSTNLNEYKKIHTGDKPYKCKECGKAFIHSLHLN
- METHOD: HT-SELEX; 20 mM HEPES pH 7, 140 mM KCl, 5 mM NaCl, 1 mM K2HPO4, 2 mM MgSO4, 100 uM EGTA, ZnSO4, 0.1% Tween20; room temperature, 1 h; high values mean tight binding
- CONDITION_DESCRIPTION: protein: ivt; tags: eGFP (N-terminal); dsDNA, one strand shown
MEASURED_PROPERTY: binding signal (relative 10-mer count)
One number for each entry, in relative 10-mer count.

Consider the worked cases shown below.
CONSTRUCT_SEQUENCE: AAAGCAGCAT
TGT: ZNF721 DBD1 (Homo sapiens, UniProt Q8TF20-2 29-461)
OUTPUT_UNIT: relative 10-mer count
binding signal: 0.00202

CONSTRUCT_SEQUENCE: CCCTCTCCCC
TGT: ZNF721 DBD1 (Homo sapiens, UniProt Q8TF20-2 29-461)
OUTPUT_UNIT: relative 10-mer count
binding signal: 0.00564

CONSTRUCT_SEQUENCE: CGTCCCACCC
TGT: ZNF721 DBD1 (Homo sapiens, UniProt Q8TF20-2 29-461)
OUTPUT_UNIT: relative 10-mer count
binding signal: 0.00495

CONSTRUCT_SEQUENCE: ACCCGCCCCA
TGT: ZNF721 DBD1 (Homo sapiens, UniProt Q8TF20-2 29-461)
OUTPUT_UNIT: relative 10-mer count
binding signal: 0.00307

CONSTRUCT_SEQUENCE: CCTCCACCAC
TGT: ZNF721 DBD1 (Homo sapiens, UniProt Q8TF20-2 29-461)
OUTPUT_UNIT: relative 10-mer count
binding signal: 0.00564

For each of the items listed, what is its binding signal?
1. CACCGTCCCC
2. GAAAAAAAAA
3. CCACCCCCGA
4. ATGAAGTGTA
5. CCCCGCCCTC

Result:
1: 0.0039; 2: 0.0136; 3: 0.00298; 4: 0.432; 5: 0.00601

For each of the items listed, what is its binding signal?
1. ACCCCCGCCC
2. CCCCCGCCCG

Result:
0.00619
0.00372

For each of the items listed, what is its binding signal?
1. CTCCGCCCCC
2. GCGTACCCTA
3. CCCAACCCCC
4. GCCCCCCCCC

Result:
0.00537
0.0263
0.00789
0.00367

For each of the items listed, what is its binding signal?
1. CTCCCCACCA
2. AGCAGCATAC
3. CCGACCACCC
4. CACGCCCCCC
5. AAGCAGTACC

Result:
[0.00596, 0.00179, 0.00495, 0.00454, 0.0727]

----------
- TGT: ZNF721 DBD2 (Homo sapiens, UniProt Q8TF20-2 395-923)
- Sequence (Q8TF20 383-911): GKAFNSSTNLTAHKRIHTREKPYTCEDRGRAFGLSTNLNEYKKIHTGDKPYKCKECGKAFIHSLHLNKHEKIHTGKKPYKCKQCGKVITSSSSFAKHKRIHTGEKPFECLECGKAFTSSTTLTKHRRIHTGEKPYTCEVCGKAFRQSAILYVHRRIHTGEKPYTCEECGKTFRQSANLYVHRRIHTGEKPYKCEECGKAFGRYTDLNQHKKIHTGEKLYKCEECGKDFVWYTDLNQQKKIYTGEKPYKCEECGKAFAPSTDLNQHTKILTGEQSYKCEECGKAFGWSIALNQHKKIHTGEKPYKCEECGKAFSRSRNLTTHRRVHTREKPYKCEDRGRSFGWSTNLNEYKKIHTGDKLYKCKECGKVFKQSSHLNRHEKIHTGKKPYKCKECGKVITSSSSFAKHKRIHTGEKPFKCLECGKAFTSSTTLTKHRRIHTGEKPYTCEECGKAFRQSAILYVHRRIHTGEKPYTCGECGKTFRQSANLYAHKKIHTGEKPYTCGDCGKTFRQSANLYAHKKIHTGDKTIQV
- METHOD: HT-SELEX; 20 mM HEPES pH 7, 140 mM KCl, 5 mM NaCl, 1 mM K2HPO4, 2 mM MgSO4, 100 uM EGTA, ZnSO4, 0.1% Tween20; room temperature, 1 h; high values mean tight binding
- CONDITION_DESCRIPTION: protein: ivt; tags: eGFP (N-terminal); dsDNA, one strand shown
MEASURED_PROPERTY: binding signal (relative 10-mer count)
Answers are plain numbers, in relative 10-mer count.

CONSTRUCT_SEQUENCE: ACCACCCCCA
TGT: ZNF721 DBD2 (Homo sapiens, UniProt Q8TF20-2 395-923)
binding signal (relative 10-mer count): 0.00204

CONSTRUCT_SEQUENCE: CCACCCCTAC
TGT: ZNF721 DBD2 (Homo sapiens, UniProt Q8TF20-2 395-923)
binding signal (relative 10-mer count): 0.0036

CONSTRUCT_SEQUENCE: AAAAAGCAGT
TGT: ZNF721 DBD2 (Homo sapiens, UniProt Q8TF20-2 395-923)
binding signal (relative 10-mer count): 0.383

For each of the items listed, what is its binding signal?
1. CCCTACCACC
2. CCGCACCCCC
3. AAAACAGCAG
4. CCCCCTCACC
5. AAAAAACAGT
6. ACCTCCCACC

Result:
1: 0.0144; 2: 0.00156; 3: 0.264; 4: 0.00372; 5: 0.516; 6: 0.00348

For each of the items listed, what is its binding signal?
1. CACAAAAAAA
2. CCCCCTCCGC
3. AGCATATCCA
4. AGCATACCCT
5. AAAAACAGCA
6. CCACCGCCCC

Result:
0.0847
0.00372
0.102
0.416
0.785
0.00455

For each of the items listed, what is its binding signal?
1. CCGCCACCCC
2. ATAAAAAAGC
3. CCCCCCGACC
4. AGCATACCCC

Result:
0.0018
0.0443
0.00288
0.146

----------
- TGT: ZNF721 DBD2 (Homo sapiens, UniProt Q8TF20-2 395-923)
- METHOD: HT-SELEX; 20 mM HEPES pH 7, 140 mM KCl, 5 mM NaCl, 1 mM K2HPO4, 2 mM MgSO4, 100 uM EGTA, ZnSO4, 0.1% Tween20; room temperature, 1 h; high values mean tight binding
- CONDITION_DESCRIPTION: protein: ivt; tags: eGFP (N-terminal); dsDNA, one strand shown
I'd appreciate it if you could supply binding signal values for the items below.
Give bare numbers, in relative 10-mer count.

Consider the worked cases shown below.
CONSTRUCT_SEQUENCE: GCAAAAAAAA
TGT: ZNF721 DBD2 (Homo sapiens, UniProt Q8TF20-2 395-923)
binding signal [relative 10-mer count]: 0.056
//
CONSTRUCT_SEQUENCE: CCCGCCACCC
TGT: ZNF721 DBD2 (Homo sapiens, UniProt Q8TF20-2 395-923)
binding signal [relative 10-mer count]: 0.00252

Task: Record CCACACACCC : what is its binding signal with ZNF721 DBD2 (Homo sapiens, UniProt Q8TF20-2 395-923)?
Result: 0.00312

----------
I'd appreciate it if you could supply binding signal values for the items below.
- TGT: ZNF721 full-length (Homo sapiens, UniProt Q8TF20-2 1-923)
- METHOD: HT-SELEX; 20 mM HEPES pH 7, 140 mM KCl, 5 mM NaCl, 1 mM K2HPO4, 2 mM MgSO4, 100 uM EGTA, ZnSO4, 0.1% Tween20; room temperature, 1 h; high values mean tight binding
- CONDITION_DESCRIPTION: protein: ivt; tags: eGFP (N-terminal); dsDNA, one strand shown
One number for each entry, in relative 10-mer count.

CONSTRUCT_SEQUENCE: CCACCCCTAC
binding signal / relative 10-mer count: 0.112
//
CONSTRUCT_SEQUENCE: ACCCACCCCA
binding signal / relative 10-mer count: 0.167
//
CONSTRUCT_SEQUENCE: AAGCAGCGTC
binding signal / relative 10-mer count: 0.112
//
CONSTRUCT_SEQUENCE: AAAAAAGCTC
binding signal / relative 10-mer count: 0.21
//
CONSTRUCT_SEQUENCE: AGGGGGCGGG
binding signal / relative 10-mer count: 0.128

For each of the items listed, what is its binding signal?
1. AAAAAAAGCT
2. ACCTCCCCAC
3. GCCCACCCAC

Result:
1: 0.472; 2: 0.108; 3: 0.168

For each of the items listed, what is its binding signal?
1. AAAAGCAGCG
2. CAGCATGCCC
3. CCACCCCAAC
4. GGCGGGGGGA
5. CGCCCCCCCC
6. CCCAACCCAC
7. AAAGCAGCAC

Result:
0.276
0.121
0.162
0.126
0.171
0.149
0.125

For each of the items listed, what is its binding signal?
1. GAAGCTATAC
2. GGGGGGGGGA
3. ACCCCCACCC
4. CCCGCCCTCC

Result:
1: 0.107; 2: 0.116; 3: 0.267; 4: 0.158

Task: Quick check: binding signal of CCCCCGCCGC ?
Result: 0.128
